Reference for the values: patent US20230083012A1

# CC50 at 6 days per record follows
Assay: Cytotoxicity determination in HepG2.2.15 cells (CCK-8 cell viability)
Format: cell-based
Conditions: human, 6 days treatment, CCK-8 assay, highest concentration 100 uM

These solved cases illustrate the format of a correct answer.
compound COC(=O)C1=C(CN2CC(F)(F)[C@@H]3[C@H]2CON3CCC(C)(C)C(=O)O)NC(c2nccs2)=N[C@H]1c1ccc(F)c(F)c1C (single isomer, unassigned) [Compound 161] , CC50 at 6 days observed: > 50 µM

compound CCOC(=O)C1=C(CN2CC(F)(F)[C@H]3[C@@H]2CN(CC(C)(C)C(=O)O)N3C)NC(c2nccs2)=N[C@H]1c1cccc(F)c1C (relative stereo) [Compound 87] , CC50 at 6 days observed: > 50 µM

***
compound CCOC(=O)C1=C(CN2CC(F)(F)[C@@H]3[C@H]2CON3CCC(C)(C)C(=O)O)NC(c2nccs2)=N[C@H]1c1ccc(F)cc1Cl (single isomer, unassigned) [Compound 169] , CC50 at 6 days observed: > 50 µM

---

System: HBV
Test: Anti-HBV activity in HepG2.2.15 cells (HBV DNA in culture medium by qPCR)
Format: cell-based
Details: Hepatitis B virus, HepG2.2.15, 144 h, HepG2.2.15 cells, 6 days treatment, HBV DNA in culture medium quantified by real-time PCR; read-out: EC50
# log10 of EC50 per record follows
Values reflect log10 of reported EC50 (nM).

compound CCOC(=O)C1=C(CN2CC(F)(F)[C@H]3[C@@H]2CCN3C(=O)NC(N)=O)NC(c2nccs2)=N[C@H]1c1cccc(F)c1C (single isomer, unassigned) , log10 of EC50 observed: 1.07

compound COC(=O)C1=C(CN2CC(F)(F)[C@H]3[C@@H]2CCN3CCC(C)(C)C(=O)O)NC(c2nccs2)=N[C@H]1c1ccc(F)c(F)c1Cl (single isomer, unassigned) , log10 of EC50 observed: 0.53

compound CCOC(=O)C1=C(CN2CC(F)(F)[C@H]3[C@@H]2CCN3CCC(C)(C)C(=O)O)NC(c2nccs2)=N[C@H]1c1ccc(F)cc1Cl (single isomer, unassigned) , log10 of EC50 observed: 0.54

***
compound CCOC(=O)C1=C(CN2CC(F)(F)[C@@H]3CNC[C@@H]32)NC(c2nccs2)=N[C@H]1c1cccc(F)c1C (single isomer, unassigned) , log10 of EC50 observed: 1.70

compound COC(=O)C1=C(CN2CC(F)(F)[C@H]3[C@@H]2CCN3C[C@H](C)C(=O)O)NC(c2nccs2)=N[C@H]1c1ccc(F)c(F)c1Cl (single isomer, unassigned) [Compound 134B] , log10 of EC50 observed: 0.63

compound CCOC(=O)C1=C(CN2CC(F)(F)[C@H]3[C@@H]2CCN3C[C@@H](CC)C(=O)O)NC(c2nccs2)=N[C@@H]1c1ccc(F)nc1C (single isomer, unassigned) [Compound 122A] , log10 of EC50 observed: 0.78

compound CCOC(=O)C1=C(CN2C[C@@H](F)[C@@]3(F)CN(CC(C)(C)C(=O)O)C(=O)[C@@H]23)NC(c2nccs2)=N[C@H]1c1cccc(F)c1C (single isomer, unassigned) [Compound 203A] , log10 of EC50 observed: 1.22

compound CCOC(=O)C1=C(CN2CC(F)(F)[C@@H]3CN(C(=O)[C@H]4C[C@@H](C(=O)O)C4)C[C@@H]32)NC(c2nccs2)=N[C@H]1c1cccc(F)c1C (single isomer, unassigned) [Compound 56B] , log10 of EC50 observed: 1.90

compound CCOC(=O)C1=C(CN2CC(F)(F)C3C(=O)N(CC(C)(C)C(=O)O)C[C@@H]32)NC(c2nccs2)=N[C@@H]1c1ccc(Cl)c(F)c1 (single isomer, unassigned) , log10 of EC50 observed: 1.56

---

Test: Cytotoxicity determination in HepG2.2.15 cells (CCK-8 cell viability)
Format: cell-based
Conditions: human, 6 days treatment, CCK-8 assay, highest concentration 100 uM
measured.parameter: CC50 at 6 days (µM)
Number only, in µM; omit the unit.

molecule CCOC(=O)C1=C(CN2CC(F)(F)C3[C@@H]2CCN3[C@H]2C[C@@](C)(C(=O)O)C2)NC(c2nccs2)=N[C@H]1c1cccc(F)c1C (single isomer, unassigned) [Compound 112B] , CC50 at 6 days observed: 23.6

molecule CCOC(=O)C1=C(CN2CC(F)(F)[C@@H]3C(=O)N(C4(C(=O)O)CC4)C[C@@H]32)NC(c2nccs2)=N[C@H]1c1cccc(F)c1C (single isomer, unassigned) , CC50 at 6 days observed: 99.6

molecule CCOC(=O)C1=C(CN2CC(F)(F)[C@@H]3C(=O)N(CC(C)(C)C(=O)O)C[C@@H]32)NC(c2nccs2)=N[C@H]1c1cccc(F)c1Cl (single isomer, unassigned) , CC50 at 6 days observed: 50.2

molecule CCOC(=O)C1=C(CN2CC(F)(F)[C@@H]3CN(S(N)(=O)=O)C[C@@H]32)NC(c2nccs2)=N[C@H]1c1cccc(F)c1C (single isomer, unassigned) , CC50 at 6 days observed: 14.6

***
molecule CCOC(=O)C1=C(CN2CC(F)(F)[C@H]3CN([C@H]4C[C@H](C(=O)O)C4)C[C@H]32)NC(c2nccs2)=N[C@H]1c1cccc(F)c1C (single isomer, unassigned) [Compound 18A] , CC50 at 6 days observed: 66.3

molecule CCOC(=O)C1=C(CN2CC(F)(F)[C@H]3[C@@H]2CCN3CCC(C)(C)C(=O)O)NC(c2ncoc2C)=N[C@@H]1c1cccc(F)c1C (relative stereo) , CC50 at 6 days observed: 42.5

molecule CCOC(=O)C1=C(CN2CC(F)(F)[C@@H]3CN(C4(C(=O)O)CC4)C(=O)C32)NC(c2nccs2)=N[C@H]1c1cccc(F)c1C (single isomer, unassigned) , CC50 at 6 days observed: 26

---

Assay: Cytotoxicity determination in HepG2.2.15 cells (CCK-8 cell viability)
Format: cell-based
Details: human, 6 days treatment, CCK-8 assay, highest concentration 100 uM
Experimental: HepG2.2.15 (the HepG2.2.15 cell line can be produced by transfection of the HepG2 cell line as described in Sells, Chen, and Acs 1987 (Proc. Natl. Acad. Sci. USA 84: 1005-1009), and the HepG2 cell line is available from ATCC® under number HIB-8065™) […] Cell viability was determined by CCK-8 assay. […] The absorbance at 450 nm wavelength and the absorbance at 630 nm wavelength as reference was measured. 2) DATA Analysis EC50 and CC50 values are calculated by the GRAPTIPAD PRISM software.
# CC50 at 6 days per record follows

molecule CCOC(=O)C1=C(CN2CC(F)(F)[C@@H]3[C@H]2CON3C[C@H](CC)C(=O)O)NC(c2nccs2)=N[C@H]1c1cccc(F)c1C (single isomer, unassigned) [Compound 178B] , CC50 at 6 days observed: > 50 µM

***
molecule COC(=O)C1=C(CN2CC(F)(F)[C@@H]3[C@H]2CON3CCC(C)(C)C(=O)O)NC(c2nccs2)=N[C@H]1c1ccc(F)cc1Cl (single isomer, unassigned) , CC50 at 6 days observed: > 100 µM

molecule CCOC(=O)C1=C(CN2CC(F)(F)C3C(=O)N(CC(C)(C)C(=O)O)C[C@@H]32)NC(c2nccs2)=N[C@@H]1c1ccc(Cl)c(F)c1 (single isomer, unassigned) , CC50 at 6 days observed: > 50 µM

molecule CCOC(=O)C1=C(CN2CC(F)(F)[C@@H]3[C@H]2CON3CCC(C)(C)C(=O)O)NC(c2nc(C)cs2)=N[C@H]1c1cccc(F)c1C (single isomer, unassigned) , CC50 at 6 days observed: > 50 µM

molecule CCOC(=O)C1=C(CN2CC(F)(F)[C@@H]3CN(CC4(C(=O)O)CC4)C[C@@H]32)NC(c2nccs2)=N[C@H]1c1cccc(F)c1C (single isomer, unassigned) [Compound 16B] , CC50 at 6 days observed: > 100 µM

molecule CCOC(=O)C1=C(CN2CC(F)(F)[C@@H]3C(=O)N([C@@H](C)C(=O)O)C[C@@H]32)NC(c2nccs2)=N[C@H]1c1cccc(F)c1C (single isomer, unassigned) , CC50 at 6 days observed: > 100 µM

molecule COC(=O)C1=C(CN2CC(F)(F)[C@@H]3C(=O)N(CC(C)(C)C(=O)O)C[C@@H]32)NC(c2nccs2)=N[C@H]1c1ccc(F)c(F)c1Cl (single isomer, unassigned) , CC50 at 6 days observed: > 100 µM

---

Assay: Cytotoxicity determination in HepG2.2.15 cells (CCK-8 cell viability)
Format: cell-based
Settings: human, 6 days treatment, CCK-8 assay, highest concentration 100 uM
measured.parameter: CC50 at 6 days (µM)
Number only, in µM; omit the unit.

compound CCOC(=O)C1=C(CN2CC(F)(F)[C@@H]3C(=O)N(c4ccn(CCC(C)(C)C(=O)O)n4)C[C@@H]32)NC(c2nccs2)=N[C@H]1c1cccc(F)c1C (single isomer, unassigned) , CC50 at 6 days observed: 33.6

compound CCOC(=O)C1=C(CN2CC(F)(F)[C@@H]3CN(C(=O)NCC(C)(C)C(=O)O)C(=O)[C@@H]32)NC(c2nccs2)=N[C@H]1c1cccc(F)c1C (single isomer, unassigned) , CC50 at 6 days observed: 28.2

compound CCOC(=O)C1=C(CN2CC(F)(F)[C@@H]3[C@H]2CN(C)N3CCC(C)(C)C(=O)O)NC(c2nccs2)=N[C@H]1c1cccc(F)c1C (relative stereo) [Compound 68A] , CC50 at 6 days observed: 22.2

compound CCOC(=O)C1=C(CN2CC[C@H]3C(=O)N(CC(C)(C)C(=O)O)C[C@H]32)NC(c2nccs2)=N[C@H]1c1cccc(F)c1C (single isomer, unassigned) [Compound 25A] , CC50 at 6 days observed: 74.5

compound CCOC(=O)C1=C(CN2CC(F)(F)[C@H]3[C@@H]2CCN3CC2(CC(=O)O)CC2)NC(c2nccs2)=N[C@H]1c1cccc(F)c1C (relative stereo) , CC50 at 6 days observed: 25.5

compound CCOC(=O)C1=C(CN2CC(F)(F)C3C2CCN3CC(=O)O)NC(c2nccs2)=N[C@H]1c1cccc(F)c1C (stereo in doubt) , CC50 at 6 days observed: 37.2

***
compound CCOC(=O)C1=C(CN2CC(F)(F)[C@H]3[C@@H]2CCN3C[C@H]2C[C@](C)(C(=O)O)C2)NC(c2nccs2)=N[C@H]1c1cccc(F)c1C (single isomer, unassigned) [Compound 116B] , CC50 at 6 days observed: 10.6

compound CCOC(=O)C1=C(CN2CC(F)(F)[C@@H]3[C@H]2CN(C)N3CCC(C)(C)C(=O)O)NC(c2nccs2)=N[C@@H]1c1ccc(F)c(F)c1C (single isomer, unassigned) , CC50 at 6 days observed: 5.4
